Test system: HBV rcDNA
Test details: HepDE19 assay with bDNA quantitation of HBV rcDNA
Assay type: cell-based, hepatitis B virus
Test context: Hepatitis B virus, HepDE19, HepDE19 assay, inhibition of formation of rcDNA; read-out: DE-19bDNA EC50
Measured metric: pEC50
The scale used: pEC50 is minus the common logarithm of the concentration in molar units.

Example compounds with recorded pEC50:
CC(c1c[nH]c(=O)c2ccccc12)N(CC1COC(C)(C)OC1)C(=O)Nc1ccc(F)cc1 (single isomer, unassigned) | 5.74
COc1ncc(C(CCO)NC(=O)Nc2ccc(F)c(Cl)c2)c2ccccc12 (racemic) | 5.36
CC(c1cn(CCO)c(=O)c2ccccc12)N(C)C(=O)Nc1ccc(F)c(Cl)c1 (single isomer, unassigned) | 6.80

The value of pEC50 measured for the compound CCN(Cc1c[nH]c(=O)c2ccccc12)C(=O)Nc1ccc(F)c(Cl)c1 turned out to be 6.80

----------
Tested on: HBV rcDNA
Test details: HepDE19 assay with bDNA quantitation of HBV rcDNA
Assay type: cell-based, hepatitis B virus
Test context: HepDE19 assay, inhibition of formation of relaxed circular DNA (rcDNA), bDNA quantitation; read-out: DE-19bDNA EC50
The entries below come with measured pEC50 values attached.
The scale used: pEC50 is minus the common logarithm of the concentration in molar units.

CC(c1cnc(-n2ccnn2)c2ccccc12)N(C)C(=O)Nc1ccc(F)c(Cl)c1 (single isomer, unassigned) [Compound 424] | 5.19
CC(c1c[nH]c(=O)c2c(F)c(F)ccc12)N(C)C(=O)Nc1cc(Cl)c(F)c(Cl)c1 (single isomer, unassigned) [Compound 451] | 5.49
CC(c1c[nH]c(=O)c2c(F)c(F)ccc12)N(C)C(=O)Nc1ccc(F)c(F)c1 (single isomer, unassigned) [Compound 435] | 6.62
CCN(C(=O)Nc1ccc(F)c(F)c1)C(C)c1c[nH]c(=O)c2c(F)c(F)ccc12 (single isomer, unassigned) [Compound 462] | 6.04
CC(c1c[nH]c(=O)c2ccccc12)N(Cc1cncs1)C(=O)Nc1ccc(F)c(Cl)c1 (single isomer, unassigned) [Compound 324] | 5.35
CC(c1c[nH]c(=O)c2ccccc12)N(Cc1cccnc1)C(=O)Nc1ccc(F)c(Cl)c1 (single isomer, unassigned) [Compound 306] | 6.00
CC(c1c[nH]c(=O)c2c(F)c(F)ccc12)N(CCS(N)(=O)=O)C(=O)Nc1ccc(F)c(Cl)c1 (single isomer, unassigned) [Compound 391] | 5.54
CC(c1cn(C)c(=O)c2cc(F)ccc12)N(C)C(=O)Nc1ccc(F)c(Cl)c1 (single isomer, unassigned) [Compound 303] | 7.70
CC(c1c[nH]c(=O)c2cc(F)c(F)cc12)N(C)C(=O)Nc1ccc(F)c(C#N)c1 (single isomer, unassigned) [Compound 429] | 8.00
CC(c1c[nH]c(=O)c2c(F)c(F)ccc12)N(CCS(N)(=O)=O)C(=O)Nc1ccc(F)cc1 (single isomer, unassigned) [Compound 395] | 6.52

The value of pEC50 measured for the compound CC(c1cnc(CO)c2ccccc12)N(C)C(=O)Nc1ccc(F)c(Cl)c1 (single isomer, unassigned) [Compound 327] turned out to be 6.15

The value of pEC50 measured for the compound CC(c1cn(C)c(=O)c2cc(F)c(F)cc12)N(CCCO)C(=O)Nc1ccc(F)c(Cl)c1 (single isomer, unassigned) [Compound 351] turned out to be 8.15
